measurement target: UniProtKB P21452
Sequence (P21452 whole entry): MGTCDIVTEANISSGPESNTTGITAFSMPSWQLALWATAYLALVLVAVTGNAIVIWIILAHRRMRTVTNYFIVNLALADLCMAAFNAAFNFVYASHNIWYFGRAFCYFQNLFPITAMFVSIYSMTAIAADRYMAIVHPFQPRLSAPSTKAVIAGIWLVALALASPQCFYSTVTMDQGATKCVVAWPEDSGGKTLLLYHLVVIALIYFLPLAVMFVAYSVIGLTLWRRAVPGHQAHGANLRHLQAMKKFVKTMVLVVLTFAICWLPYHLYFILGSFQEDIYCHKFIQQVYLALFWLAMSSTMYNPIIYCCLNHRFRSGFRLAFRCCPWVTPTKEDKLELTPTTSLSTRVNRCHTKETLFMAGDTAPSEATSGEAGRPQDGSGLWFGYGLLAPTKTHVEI
Define the label as Criterion met when IC50 is strictly less than 1 nM and as Criterion not met in all remaining cases.

Recorded results for 6 compounds are shown here.
compound smiles: CCOC1CCN(C2CN(CC[C@]3(c4ccc(Cl)c(Cl)c4)CCC(=O)N(CC4CC4)C3)C2)CC1
cat: Criterion not met
//
compound smiles: O=C1CC[C@](CCN2CC(N3CCC(O)CC3)C2)(c2ccc(Cl)c(Cl)c2)CN1CC1CCC(F)(F)CC1
cat: Criterion not met
//
compound smiles: O=C1CC[C@](CCN2CC(N3CCC(F)CC3)C2)(c2ccc(Cl)c(Cl)c2)CN1CC1CCC(F)(F)CC1
cat: Criterion met
//
compound smiles: CS(=O)(=O)N1CCN(C2CN(CC[C@]3(c4ccc(Cl)c(Cl)c4)CCC(=O)N(CC4CCC(F)(F)CC4)C3)C2)CC1
cat: Criterion not met
//
compound smiles: O=C1CC[C@](CCN2CC(N3CCOCC3)C2)(c2ccc(Cl)c(Cl)c2)CN1CC1CCCCC1
cat: Criterion met
//
compound smiles: O=C1CC[C@](CCN2CC(N3CCOCC3)C2)(c2ccc(Cl)c(Cl)c2)CN1CC1CCC(F)(F)CC1
cat: Criterion not met

Next up:
Hello, is IC50 of the following compound strictly smaller than 1 nM? CN(C)S(=O)(=O)N1CCN(C2CN(CC[C@]3(c4ccc(Cl)c(Cl)c4)CCC(=O)N(CC4CC4)C3)C2)CC1
Criterion not met
